Test system: 786-0 renal
Assay: NCI-60 one-dose screen, 48 h (100 = growth as untreated, 0 = no growth, -100 = all killed)
Details: 10 µM unless noted
Compounds without any hit were thinned out: in the full panel of roughly 83,000, 20% have a hit.
Each record's growth is compared with b0 = under 70%, b1 = from 70% up to 90%, b2 = 90% and over to give its class.

>>> print(df.to_string())
                                    molecule  label_value
 0  COc1ccccc1CNCCCN1C(=O)c2ccc3c4c(ccc(c24)C1=O)C(=O)N(CCCOCCCCOCCCN)C3=O           b0
 1  O=C(N/N=C/c1ccc([N+](=O)[O-])cc1)c1ccccc1Nc1ccnc(C(F)(F)F)c1           b1
 2                  N=c1nc(N2CCCCC2)cc(N)n1O           b2
 3  O=C(Nc1ccc([N+](=O)[O-])cc1)c1cc2ccccc2cc1O           b0
 4    Nc1c(C(=O)C[C@@H](N)CO)ccc2c1C(=O)CCO2           b1
 5  CCS(=O)(=O)Nc1cccc(Nc2c3cccc(C)c3nc3c(C)cccc23)c1OC           b0
 6            ClCc1c(Cl)c(Cl)c(Cl)c(CCl)c1Cl           b1
 7       COc1ccc2nc(C)cc(Sc3nc4ccccc4s3)c2c1           b1
 8               Cc1cc([N+](=O)[O-])c(C)cc1N           b2
 9                       Cc1cc(-c2ccccc2)on1           b2
10  COc1cccc(/C(C)=N/NC(=O)CSc2nc3ccccc3c(=O)n2CCc2ccc(S(N)(=O)=O)cc2)c1           b0
11  C#Cc1cccc(Nc2nc3cc([N+](=O)[O-])ccc3nc2Nc2ccc(O)cc2)c1           b0
12  CC(C)c1nc2ccccc2n1CC(=O)N/N=C/c1cccc(O)c1           b2
13  CCCCCCCCCCCCC1CCC(=O)O1 (stereo not drawn)           b1
14  O=c1nc(-c2ccccc2)c2cc(-c3ccc(N4CCOCC4)cc3)ccc2[nH]1           b1
15  CC(=O)c1ccc(N2C(=O)c3ccc(Oc4ccccc4)cc3C2=O)cc1           b2
16  COc1cc(C2CC(c3ccccc3)=NN2C=O)ccc1Oc1ccnc2cc(Cl)ccc12 (stereo not drawn)           b1
17  O=C1OCC2=C1C(c1ccccc1)c1cc3c(cc1N2CCO)OCO3 (stereo not drawn)           b0
18  CC(NC(=O)c1ccccc1)C(=O)Nc1ccccc1 (stereo not drawn)           b2
19                       c1ccc(CCn2cccc2)nc1           b2
20  CCN(CC)CCCC(C)Nc1c(-c2ccccc2)cnc2cc(Cl)ccc12 (stereo not drawn)           b0

* * *

Tested on: UACC-62 melanoma
Test: NCI-60 one-dose screen, 48 h (100 = growth as untreated, 0 = no growth, -100 = all killed)
Conditions: 10 µM unless noted
About 83,000 compounds went through this panel and 20% of them were active in at least one assay; those are over-represented in the sample as a whole.
metric: growth (%)

compound	measurement
COc1nccc2c(Sc3ccccc3)nc(N)nc12	102
NC(N)=N/N=C/c1cccc(Cl)c1Cl	90.5
CCC1=CC2CN(C1)Cc1c([nH]c3ccccc13)[C@@](C(=O)OC)(c1cc3c(cc1OC)N(C)[C@H]1[C@@](O)(C(=O)OC)[C@H](OC(C)=O)[C@]4(CC)C=CCN5CC[C@]31[C@@H]54)C2 (stereo not given in full)	43.6
Cc1c(C(=O)Nc2ccccc2F)sc2c(=O)[nH]cnc12	78.4
O=C1N(Cc2ccccc2Cl)c2ccccc2C12NN=C(c1ccccc1)S2 (stereo not given)	58.6
